Attribution: PubChem BioAssay

# maps each entry to its growth inhibition
experiment: S. cerevisiae growth inhibition in permissive medium (OD615), pilot counter-assay for S. cerevisiae lifespan shortening project, permissive growth control (AID 705); settings: OD615, 24 h, at 10 µM, stronger effect = higher value
measured property: growth inhibition (%)

| molecule | assay result |
| --- | --- |
| CCCOc1ccc(N2CC(C(=O)Nc3ccc4c(c3)OCO4)CC2=O)cc1 (stereo unspecified) | -11.2 |
| CCOC(=O)COn1c(=O)c(=O)n(O)c2ccccc21 | -14.5 |
| O=C(Cn1nc(Cc2ccncc2)c2ccccc2c1=O)N1CCc2ccccc2C1 | -1.69 |
| CCOc1ccc(N(CC(=O)NCCCOC)S(C)(=O)=O)cc1 | 4.66 |
| Clc1cccc(N2CCN(Cc3nc(-c4ccccc4)no3)CC2)c1 | 3.02 |
| O=c1c2c3c(sc2nc2n1CCCCC2)CCCCC3 | -11.5 |
| CCC(C)OC(=O)C1=C(C)NC2=C(C(=O)C(C(=O)OC)C(C)C2)C1c1ccc(N(C)C)cc1 (stereo unspecified) | -3.15 |
| Cc1ccccc1-n1nc(C(=O)O)c(C)c(C#N)c1=O | -3.86 |
| Cc1ccc(C(=O)NC(Cc2c[nH]c3ccccc23)C(=O)O)o1 (stereo unspecified) | 1.54 |
| CCOC(=O)N1CCN(C(=O)C2CCCN(Cc3nc(-c4ccc(Cl)cc4)oc3C)C2)CC1 (stereo unspecified) | 2.57 |
| Cc1cccn2c(=O)c3cc(C(=O)NCCN4CCOCC4)c(=N)n(CCc4ccccc4)c3nc12 | -0.895 |
| O=C(NCCc1c[nH]c2ccccc12)c1cnc2n(c1=O)CCS2 | -5.46 |
| CC(=O)NC(C)c1nc2ccccc2n1C(C)C (stereo unspecified) | -5.54 |
| Cc1cc(C)nc(NC2=NCC(=O)N2c2ccccc2Br)n1 | -2.53 |
| C=CCN1C(=O)c2oc3ccccc3c(=O)c2C1c1ccc(O)c(OC)c1 (stereo unspecified) | 3.61 |
| CCn1c(C(=O)NC(C)c2ccc3c(c2)OCCO3)cc2sccc21 (stereo unspecified) | -7.09 |
| COc1ccc(CNC(=O)Cn2cc3c(n2)CCCCC3)cc1 | 2.42 |
| COc1ccc(CCNC(=O)c2cc3sc(Cl)cc3n2C)cc1OC | -5.07 |
| CCC(C)C(=O)Nc1nc2c(s1)C(=O)CC(C)(C)C2 (stereo unspecified) | -16.6 |
| COC(=O)CSc1nnc(-c2ccncc2)o1 | -2.71 |
| COc1cccc(NC(=O)C2CCCN(S(=O)(=O)c3cccc4cccnc34)C2)c1 (stereo unspecified) | -12.6 |
| CCCCNC(=O)CCCn1c(=O)[nH]c2ccc(Br)cc2c1=O | -13 |
| COc1cccc(-c2nc(CS(=O)(=O)CC(=O)N3CCN(c4ccccn4)CC3)c(C)o2)c1 | 0.71 |
| O=C(NCc1ccc2c(c1)OCO2)C1CCCN(S(=O)(=O)c2cccc3cccnc23)C1 (stereo unspecified) | -10.4 |
| O=C(c1cccs1)N1CCc2ccccc21 | 1.98 |
| COC(=O)c1cn(C(=O)c2ccc(Br)o2)c2ccccc12 | 4.04 |
| c1nc(NCC2(N3CCOCC3)CCCCC2)c2ccsc2n1 | -25.4 |
| O=S(=O)(c1ccc(OCc2nc3ccccc3s2)c(Cl)c1)N1CCOCC1 | -7 |
| O=C(Nn1cnnc1)C1Cc2ccccc2CN1S(=O)(=O)c1ccc(F)cc1 (stereo unspecified) | -1.04 |
| O=C(c1cnccn1)N(c1ccccc1)C1(C(=O)NC2CCCC2)CCCCC1 | -9.55 |
| CCOC(=O)c1sc2nc(NC(=O)C3CCCCC3)sc2c1C | -4.09 |

====

assay: viability of HCT116 without oncogenic beta-catenin – human colon tumor cells, pilot screen (AID 823); details: HCT116 beta-catenin knockout viability, CellTiter-Glo, 60 h; at 10 µM; stronger effect = lower value;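 also: 0% = wells killed by 20 µM Hyamine and 100% = untreated DMSO cell wells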
Records with an inconclusive call do not appear.

| compound | unit tag | viability |
| --- | --- | --- |
| CCOc1ccc2nc(N3CCC(C(=O)N4CCN(C5CCCCC5)CC4)CC3)sc2c1 | % | 55.6 |
| COCCOC(=O)C1=C(C)OC(N)=C(C#N)C1c1ccc2c(c1)OCO2 (stereo not given) | % | 106 |
| O=C(NCCSCc1ccco1)c1ccc(CN2CCOCC2)cc1 | % | 101 |
| CCSc1nnc2c(n1)OC1(CCCC1)Nc1ccccc1-2 | % | 97.3 |
| O=C(Cn1ncc2c(=O)oc3ccccc3c21)NCCCN1CCCC1=O | % | 101 |

====

assay: S. cerevisiae growth inhibition in permissive medium (OD615), pilot counter-assay for S. cerevisiae lifespan shortening project, permissive growth control (AID 705); conditions: OD615, 24 h, at 10 µM, stronger effect = higher value
Each entry below carries its reported growth inhibition.
measured property: growth inhibition (%)

| molecule | assay result |
| --- | --- |
| COc1cc(NC(=O)c2nccnc2C(=O)O)cc(OC)c1 | -8.21 |
| Cc1ccc(C(C)C)c(OCCCN2CC(C)OC(C)C2)c1 (stereo not drawn) | -7.86 |
| Cc1cc(N)n2nc(-c3ccccc3)cc2n1 | -14.1 |
| CC1Cc2nc(SCC(=O)N3CCCc4ccccc43)n(C)c(=O)c2S1 (stereo not drawn) | -5.25 |
| O=C(Cn1cc2c(n1)CCCC2)NCCc1ccccc1 | -2.47 |
| CCC(C)Sc1nc2c(c(=O)n1C)SC(C)C2 (stereo not drawn) | -11.3 |
| Nc1nc(SCC(=O)N2CCCc3ccccc32)n(-c2ccccc2)n1 | -4.37 |
| CC(=O)c1cccc(NC(=O)CCS(=O)(=O)c2cccc3nonc23)c1 | -9.88 |
| CCOc1ccc(Cn2nnc(C(=O)NCc3ccc(OC)cc3)c2N)cc1 | -3.91 |
| COc1ccccc1-c1cc2nc(C)c(CCC(=O)NCc3ccco3)c(C)n2n1 | -2.34 |
| CN1C(=O)c2cccc(NC(=O)CCc3ccccc3)c2C1=O | -6.67 |
| CS(=O)(=O)NCCSCc1c(F)cccc1Cl | -2.46 |
| COc1cccc(C2C(C(N)=O)=C(C)Nc3nc(CCCO)nn32)c1OC (stereo not drawn) | -8.7 |
| CC1(C)Cc2ccccc2C(N)=C1C#N | 4.29 |
| CC1Cc2ccccc2N1C(=O)c1cnc2n(c1=O)CCS2 (stereo not drawn) | -2.36 |
| COc1ccc(-n2c(C)nc3c(cnn3-c3ccc(C)c(C)c3)c2=O)cc1 | -13.7 |
| Cc1ccc(-c2cc(C(=O)Nc3cc(C)on3)c3ccccc3n2)c(C)c1 | -8.89 |
| CCOC(=O)CSC1=C(C#N)C(c2ccc(C)o2)CC(=O)N1 (stereo not drawn) | -8.58 |

====

test: viability of PTEN-null HCT116 cells – cell-based, HCT116 clonal line, CellTiter-Glo, pilot screen (AID 824); settings: HCT116 PTEN-deleted viability, 60 h, at 10 µM, stronger effect = lower value;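 also: 0% = 20 µM Hyamine control and 100% = vehicle cell control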
Inconclusive results are not listed.
Label criterion met when viability is strictly below 90%; at or above that, label criterion not met.

| compound | class assignment |
| --- | --- |
| COC(=O)c1cc(COc2ccc3c4c(c(=O)oc3c2)CCCC4)c(C)o1 | criterion not met |
| CCC(C)NC(=O)C1c2cc(OC)c(OC)cc2C(=O)N(C)C1c1ccc(OC)cc1 (centres undefined) | criterion not met |
| CCOC(=O)Cc1nnc(NC(=O)C(CC)Sc2nc(C)cc(=O)[nH]2)s1 (centres undefined) | criterion not met |
| COc1ccc(OC)c(C2C(C(N)=O)=C(C)Nc3nc(CCCO)nn32)c1 (centres undefined) | criterion not met |
| CC(C)CCSc1nnc(Cn2c(=O)sc3ccccc32)n1C | criterion met |
| COc1cccc(C2=NOC(C(=O)N3CCN(c4ccccc4)CC3)C2)c1OC (centres undefined) | criterion not met |
| CCOc1ccccc1N1C(=O)c2cccnc2C1=O | criterion not met |
| COc1ccccc1-n1c(=O)[nH]c2c(C(N)=O)nc(-c3cccnc3)nc21 | criterion met |
| CCCCCn1c(CCNC(=O)CCC)nc2ccccc21 | criterion met |
| Cc1oc2cc(O)ccc2c(=O)c1Oc1ccccc1Br | criterion met |

====

As shown below, each of these molecules has a reported viability value.
experiment: viability of PTEN-null HCT116 cells – cell-based, HCT116 clonal line, CellTiter-Glo, pilot screen (AID 824); settings: HCT116 PTEN-deleted viability, 60 h, at 10 µM, stronger effect = lower value;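 also: 0% = 20 µM Hyamine control and 100% = vehicle cell control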
Records with an inconclusive call do not appear.
measured property: viability (%)

| structure as smiles | unit tag | assay result |
| --- | --- | --- |
| Cc1cc2nc(SCCN3CCCC3)[nH]c2cc1C | % | 89.1 |
| CC(=O)c1c(OC(=O)c2ccco2)c2ccccc2n1C | % | 91.3 |
| CCCCc1cc2c(c(NC(C)=O)n1)c(=O)oc1ccccc12 | % | 87.8 |
